# ASSAY SYSTEM: HLA-A*0201 (HLA-A2.1) (Homo sapiens, UniProt P04439, D140Y/D185E/D98H/E176V/E277Q/G131W/G231S/I119V/I121R/I166T/I218V/L300P/L318F/N151K/N90K/P208A/P217A/Q86G/Q94H/R138H/R169H/T345S)
# PROTOCOL TEXT: biochemical
# Type: binding
MEASURED ENDPOINT: binding to HLA-A2.1 (column 3; no allele head shown for these rows)
Lab note: record just the number, no unit beside it.

What does the record list as binding to HLA-A2.1 (column 3; no allele head shown for these rows) for `QAATSSSSPL` ?
0

Next:
What does the record list as binding to HLA-A2.1 (column 3; no allele head shown for these rows) for `IMPKTGFLI` ?
0.0035

What does the record list as binding to HLA-A2.1 (column 3; no allele head shown for these rows) for `VLVTCLGLSYDGL` ?
0.0017

What does the record list as binding to HLA-A2.1 (column 3; no allele head shown for these rows) for `KLLTQDLVQEKYL` ?
0.0060
